Quick reference: TGI of the listed items.
Test system: HCC-2998 colon
Assay: NCI tumour cell line growth inhibition, 48 h
measured parameter: TGI (µM)

compound="NC(=NC1C2CC3CC(C2)CC1C3)Nc1ccc(I)cc1 (stereo not given)" modifier_sign== observed=3.61
compound=CCNC1=CC(=O)c2ncccc2C1=O modifier_sign== observed=5.37
compound=COc1cc(/C=C2\N=C(c3ccccc3)N(c3ccc(C(=O)c4ccccc4)cc3N3C(=O)/C(=C/c4cc(OC)c(OC)c(OC)c4)N=C3c3ccccc3)C2=O)cc(OC)c1OC modifier_sign== observed=11.2
compound=O=C1C(=O)C(CCCO)(CCCO)CCCCCCCCC1(CCCO)CCCO modifier_sign=> observed=100
compound=COc1ccc(C2=C(N)c3ccccc3C2=O)cc1 modifier_sign=> observed=100

---

Tested on: MDA-MB-435
Assay: NCI tumour cell line growth inhibition, 48 h
Listed here: items and their measured TGI.
measured parameter: TGI

compound=Nc1ncc(Cc2nn3c(COc4ccc(Cl)cc4)nnc3s2)s1 observed="> 100 µM"
compound=Cc1cccc(/C=N/NC(=S)NC(C)(C)C)n1 observed="> 100 µM"
compound="O=C(NC(Cc1c[nH]c2ccccc12)C(=O)O)/C(=C/c1ccccc1)NC(=O)c1ccccc1 (stereo not drawn)" observed="> 100 µM"
compound=C/C(=N\n1c(N)c(C#N)c(-c2ccc(Cl)cc2)c(C#N)c1=O)c1cccnc1 observed="> 100 µM"
compound=COc1cc(/C=C2\N=C(c3ccccc3)N(c3ccc(C(=O)c4ccccc4)cc3N3C(=O)/C(=C/c4cc(OC)c(OC)c(OC)c4)N=C3c3ccccc3)C2=O)cc(OC)c1OC observed="18.5 µM"
compound=COCCOCCOCCOCCOc1ccc2c(c1)C(=O)c1nc3ncccc3c(=O)n1-2 observed="0.364 µM"
compound=COc1ccc(/C=C(\C#N)c2nc(-c3cc4ccccc4oc3=O)cs2)cc1 observed="> 100 µM"
compound=O=c1c2c(=NCCCN3CCCC3)cc3c(=O)n(CCCN4CCCC4)c(=O)c4c(NCCCN5CCCC5)cc(c(O)n1CCCN1CCCC1)c2c4-3 observed="11.3 µM"
compound="Clc1cccc(Cl)c1C1ON=C(c2ccccc2)N1C12CC3CC(CC(C3)C1)C2 (stereo not drawn)" observed="> 100 µM"
compound=Cc1cc(C#Cc2ccccc2)ccc1-n1c(/C=C/c2ccc(O)cc2)nc2ccccc2c1=O observed="22.8 µM"
compound=Cn1cnc([N+](=O)[O-])c1Sc1nncc2[nH]cnc12 observed="> 100 µM"
compound=Fc1cc(Nc2ccc3c(OCCCN4CCOCC4)cccc3n2)ccc1Cl observed="4.83 µM"
compound="NC(Cc1ccccc1)C(=O)O (stereo not drawn)" observed="> 100 µM"
compound="C[N+](C)(C)c1nc(N)nc2c1ncn2C1OC(CO)C(O)C1O (stereo not drawn)" observed="> 100 µM"
compound=CCOC(=O)c1c(C)n(CCN2CCN(C)CC2)c2ccc(OC)cc12 observed="56.2 µM"
compound=COC(=O)[C@]12CCC(=O)N1[C@H](C(=O)O)Cc1c2[nH]c2ccccc12 observed="> 100 µM"
compound=Cc1nc2ccccc2n1CCc1nc2ccccc2[nH]1 observed="> 100 µM"
compound="CC[N+]1(C)CCC(O)(/C=C/c2ccc(Cl)c(Cl)c2)C(C(=O)/C=C/c2ccc(Cl)c(Cl)c2)C1 (stereo not drawn)" observed="5.01 µM"
compound="COC(=O)C[C@H]1[C@]2(C)C3=C(C)[C@H](c4ccoc4)CC3O[C@@H]2[C@@H]2OC(=O)[C@]3(C)CCC(=O)[C@@]1(C)[C@@H]23 (stereo partly drawn)" observed="> 100 µM"
compound=Cc1ccc2c(=O)c3c(O)c4c(cc3n(C)c2c1)OC(C)(C)C=C4 observed="> 10 µM"
compound="CC(C)=CCC/C(C)=C/CCC1(C)C2COC(=O)C21 (stereo not drawn)" observed="> 100 µM"
compound=CCOC(=O)Cn1c(C)nc2nn(Cc3ccccc3)cc2c1=O observed="> 100 µM"
compound=CCCNC(=O)Cn1c(-c2ccccc2)cc2ccccc21 observed="> 100 µM"
compound=CNc1ccc([N+](=O)[O-])cc1C(=O)N1CCC[C@H]1CO observed="> 100 µM"
compound="CC(=O)OCC1OC(O[C@@H]2C[C@H]3C(C)(C)[C@H](OC(C)=O)CC[C@]3(C)[C@H]3CC[C@@H]4[C@]5(CC[C@@]4(C)[C@@]32C)O[C@@H]([C@H](O)C(C)(C)O)C[C@@H]5C)C(O)C(O)C1O (stereo partly drawn)" observed="22.4 µM"
compound="CC(Cl)CC(=O)Nc1ccc2c(c1)oc(=O)c1cc(NC(=O)CC(C)Cl)ccc12 (stereo not drawn)" observed="> 100 µM"
compound="CC1=C(C(=O)OC(C)C)C(c2cccc([N+](=O)[O-])c2)C(C(=O)OC(CO[N+](=O)[O-])CO[N+](=O)[O-])=C(C)N1 (stereo not drawn)" observed="15.3 µM"
compound=O=C1/C(=C/c2ccc(Cl)c(Cl)c2)CN(C(=O)CCN2CCOCC2)C/C1=C\c1ccc(Cl)c(Cl)c1 observed="0.0309 µM"
compound=CC(=O)Oc1ccc(-c2c(OC(C)=O)c(OC(C)=O)c(-c3ccc(OC(C)=O)c(OC(C)=O)c3)c(OC(C)=O)c2OC(C)=O)cc1 observed="31.7 µM"
compound="Cc1cn(C2CC(O)C(Cn3cc(Cn4nc(Br)c(=O)[nH]c4=O)nn3)O2)c(=O)[nH]c1=O (stereo not drawn)" observed="> 100 µM"
compound="C1CN(C23OC4(N5CCOCC5)C5C6CC(C7C6C4C72)C53)CCO1 (stereo not drawn)" observed="> 100 µM"
compound=CCOc1cc(C=Nc2ccc(Oc3ccc(Cl)cc3)c(Cl)c2)ccc1O observed="> 100 µM"
compound="CCOC(=O)C1C2C1C1C(C(=O)OCC)C21 (stereo not drawn)" observed="> 100 µM"
compound=Cc1cc(I)cc(CN(C)CCCCN2CCCC2)c1O observed="27.9 µM"
compound="O/N=C1/CCCCC1NO (stereo not drawn)" observed="> 100 µM"
compound="CC(C)(CN1CCCCC1)C(=O)CC(SCCS(=O)(=O)O)c1ccc(Cl)c(Cl)c1 (stereo not drawn)" observed="4.57 µM"
compound="COc1ccc(N2C(=O)CSC2c2cc(OC)c(OC)c(OC)c2)cc1 (stereo not drawn)" observed="85.2 µM"
compound=CCOc1ccc(N2C(N)=NC(N)=NC2(C)C)cc1 observed="> 100 µM"
